Reported kon is given for each of the following binders.
Molecular target: peptide-binding domain of GRP78 (GRP78-PBD, amino acids 421-639) (UniProt P11021)
Sequence (P11021 421-639 limits assumed, form in doubt): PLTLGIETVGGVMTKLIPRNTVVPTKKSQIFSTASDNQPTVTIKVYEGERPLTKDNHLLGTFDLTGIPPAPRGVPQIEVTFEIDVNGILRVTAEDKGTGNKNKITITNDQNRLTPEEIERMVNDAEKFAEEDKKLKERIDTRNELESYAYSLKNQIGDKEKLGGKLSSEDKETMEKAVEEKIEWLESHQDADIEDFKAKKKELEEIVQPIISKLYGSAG
Assay: SPR (BIACORE T200), N-biotin peptide on streptavidin CM5 chip, GRP78-PBD analyte
Where no end group is shown, it is not given here. biotin = biotin label attached through an aminohexanoic acid linker; Ahx = NCCCCCC(=O)O

For orientation, consider the following solved cases.
binder: {biotin-Ahx}-GGGGSRPFLFPFLFY [F4P13-TR-CTP, N-terminally extended with GGGGS and N-terminally biotin-labeled]
val: 790 M⁻¹ s⁻¹
--
binder: {biotin-Ahx}-GGGGSRPFLFPFLFYRPFLFPFLFY [F5P13-TR-CTP, N-terminally extended with GGGGS and N-terminally biotin-labeled]
val: 1900 M⁻¹ s⁻¹
--
binder: {biotin-Ahx}-GGGGSRPFLPFLPY [F4P6-TR-CTP, N-terminally extended with GGGGS and N-terminally biotin-labeled]
val: 2300 M⁻¹ s⁻¹
--
binder: {biotin-Ahx}-GGGGSRLLDTNRPFLFY [P13-CTP, N-terminally extended with GGGGS and N-terminally biotin-labeled]
val: 1200 M⁻¹ s⁻¹
--
binder: {biotin-Ahx}-GGGGSRPFLPFLPYRPFLPFLPY [F5P6-TR-CTP, N-terminally extended with GGGGS and N-terminally biotin-labeled]
val: 890 M⁻¹ s⁻¹

Below: the item to evaluate.
For this binder ( {biotin-Ahx}-GGGGSRLLDTNRPFLPY [P6-CTP, N-terminally extended with GGGGS and N-terminally biotin-labeled] ), measured kon is 1500 M⁻¹ s⁻¹
